Target: HLA A0206 (human)
Assay: 125I-probe competition, purified HLA
Class (required): determined from IC50; valid ranges are class A = under 30 nM, class B = from 30 nM up to 100 nM, class C = 100 nM and over

Recorded results for 3 binders are shown here.
{"binder": "TVYVFCFLL (modifications not checked) [HPV18.E5.51]", "classification": "class A"}
{"binder": "KLLSKLLCV (modifications not checked) [HPV16.E1.292]", "classification": "class C"}
{"binder": "SLQDIEITCV (modifications not checked) [HPV18.E6.24]", "classification": "class C"}

Textbook exercise: identify the category of the binder given here, KLLEKLLCI (modifications not checked) [HPV31.E1.272] , according to its measured value.
class B

Textbook exercise: identify the category of the binder given here, VAWDSVYYM (modifications not checked) [HPV18.E2.136] , according to its measured value.
class C

Textbook exercise: identify the category of the binder given here, FVYIPLFLI (modifications not checked) [HPV16.E5.66] , according to its measured value.
class B

Textbook exercise: identify the category of the binder given here, FIYIPLFVI (modifications not checked) [HPV31.E5.66] , according to its measured value.
class A

Textbook exercise: identify the category of the binder given here, YVVWDSIYYI (modifications not checked) [HPV45.E2.137] , according to its measured value.
class A

Textbook exercise: identify the category of the binder given here, YTNWKFIYL (modifications not checked) [HPV31.E2.131] , according to its measured value.
class B

Textbook exercise: identify the category of the binder given here, FLLCFCVLL (modifications not checked) [HPV31.E5.15] , according to its measured value.
class A

Textbook exercise: identify the category of the binder given here, TLYAHIQCL (modifications not checked) [HPV45.E1.252] , according to its measured value.
class C

Textbook exercise: identify the category of the binder given here, KLTNKGICDL (modifications not checked) [HPV31.E6.90] , according to its measured value.
class C

Textbook exercise: identify the category of the binder given here, GTLGIVCPV (modifications not checked) [HPV16.E7.85.V9] , according to its measured value.
class B
